Source of measurements: ChEMBL document CHEMBL3832065

- protocol: Evaluation of pharmacokinetic parameters for Olanzapine after single oral dose of Olanzapine tablet.
- Type: ADME, organism-based
- condition-label: human, in vivo, dosed compound id 180, dosed compound name C-14 OLANZAPINE, regimen Single dose, tissue Urine, read-out: Excretion
attribute-measured: dose excreted (%)
Give bare numbers, in %.

Noted for Cc1cc2c(s1)Nc1ccccc1N=C2N1CCN(C)CC1 : its dose excreted reads 7

====

- protocol: Evaluation of pharmacokinetic parameters for Olanzapine after single oral dose of Olanzapine tablet.
- Format: ADME, organism-based
- condition-label: human, in vivo, dosed compound id 18, dosed compound name OLANZAPINE, regimen Single dose, tissue Plasma, read-out: CL(app) (converted)
attribute-measured: CL/F (mL/min)
One number for each entry, in mL/min.

Noted for Cc1cc2c(s1)Nc1ccccc1N=C2N1CCN(C)CC1 [OLANZAPINE] : its CL/F reads 417

====

- protocol: Evaluation of pharmacokinetic parameters for Olanzapine after single oral dose of Olanzapine tablet.
- Format: ADME, organism-based
- condition-label: human, in vivo, dosed compound id 18, dosed compound name OLANZAPINE, regimen Single dose, tissue Plasma
attribute-measured: Tmax (h)
One number for each entry, in h.

Noted for Cc1cc2c(s1)Nc1ccccc1N=C2N1CCN(C)CC1 : its Tmax reads 6
